Biological target: Kv1.3 (Homo sapiens, UniProt P22001)
Sequence (P22001 whole entry): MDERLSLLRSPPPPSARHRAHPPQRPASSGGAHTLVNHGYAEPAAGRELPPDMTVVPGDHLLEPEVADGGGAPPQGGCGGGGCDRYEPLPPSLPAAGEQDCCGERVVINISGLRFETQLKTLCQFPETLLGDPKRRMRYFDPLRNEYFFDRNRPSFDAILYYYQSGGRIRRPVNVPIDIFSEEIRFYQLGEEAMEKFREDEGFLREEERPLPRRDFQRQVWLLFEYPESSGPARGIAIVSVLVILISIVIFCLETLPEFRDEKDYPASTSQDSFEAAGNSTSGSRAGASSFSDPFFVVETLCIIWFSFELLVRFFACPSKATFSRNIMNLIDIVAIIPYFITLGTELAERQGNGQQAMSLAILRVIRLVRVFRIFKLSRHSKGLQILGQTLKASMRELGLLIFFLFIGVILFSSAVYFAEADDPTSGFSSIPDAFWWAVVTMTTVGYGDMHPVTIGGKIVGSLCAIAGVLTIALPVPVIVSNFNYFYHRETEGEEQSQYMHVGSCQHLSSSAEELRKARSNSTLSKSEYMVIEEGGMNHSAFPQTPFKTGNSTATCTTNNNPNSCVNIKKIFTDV
Experiment: patch-clamp kinetics (koff/kon)
Ends that are not written are not given here.
testReadout: Kd (nM)
Record the value in nM, omitting the unit from your answer.

TIINVKCTSPKQCLPPCKAQFGQSAGAKCMNGKCKCYPH [Margatoxin (UrMgTx)]	0.0522

-- ask Given {Glu-Phe-H2N-H2N-H2N-H2N-H2N-H2N}-LQIEGRTIINVKCTSPKQCLPPCKAQFGQSAGAKCMNGKCKCYPH (not fully specified; ends and bridges not checked) [Margatoxin (TrMgTx)] , state its recorded Kd.
-- reply 0.0839
